# ASSAYED_TARGET: Human MGAT-2 (Homo sapiens, UniProt Q3SYC2)
# Construct: made in house; host or cells: Sf9 cells (membrane preparation)
# Sequence (Q3SYC2 whole entry): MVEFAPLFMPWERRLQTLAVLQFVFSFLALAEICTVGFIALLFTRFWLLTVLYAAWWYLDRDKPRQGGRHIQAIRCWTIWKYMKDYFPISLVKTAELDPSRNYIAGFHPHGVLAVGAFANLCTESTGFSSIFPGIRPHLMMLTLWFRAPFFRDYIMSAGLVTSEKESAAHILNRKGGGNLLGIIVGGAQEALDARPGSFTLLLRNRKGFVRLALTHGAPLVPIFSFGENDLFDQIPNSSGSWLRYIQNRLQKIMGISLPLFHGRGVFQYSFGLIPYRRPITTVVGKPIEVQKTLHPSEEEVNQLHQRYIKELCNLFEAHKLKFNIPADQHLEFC
# ASSAY_NAME: MGAT LCMS Assay
# Format: biochemical
# DETAILS: human MGAT2 membranes expressed in Sf9 cells; 100 μM 2-oleoylglycerol, 15 μM oleoyl-coenzyme A; read-out: h-MGAT LCMS IC50
pIC50: −log10 of the molar value.
If the reported pIC50 equals or exceeds 7, assign label 1. If not, assign label 0.

Exam item: Test whether the compound Cc1ccc(-c2cc(-c3ccc(C4=CCCCCC4)cc3)[nH]c(=O)c2-c2nnn[nH]2)cc1 [Example 69] records pIC50 of 7 or higher.
Marked response: label 0

Exam item: Thanks! And O=C(Nc1ccc(OC(F)(F)F)cc1)c1c(-c2ccc(Cl)s2)cc(C2CCCCC2)[nH]c1=O [Example 85] ?
Marked response: label 1

Exam item: Thanks! And CS(=O)(=O)NC(=O)c1c(-c2ncc(C3CC3)s2)cc(-c2ccc(OCCCC(F)(F)F)cc2F)[nH]c1=O [Example 141] ?
Marked response: label 1

Exam item: Thanks! And CC(C)(C)c1ccc(-c2cc(-c3ccc(OCCCC(F)(F)F)cc3)[nH]c(=O)c2C(=O)NS(=O)(=O)C2CC2)cc1 [Example 12] ?
Marked response: label 1

Exam item: Thanks! And CCc1ccc(-c2cc(-c3ccc(OCCCC(F)(F)F)cc3F)[nH]c(=O)c2-n2nn[nH]c2=O)s1 [Example 152] ?
Marked response: label 1

###

# ASSAYED_TARGET: Human MGAT-2 (Homo sapiens, UniProt Q3SYC2)
# Construct: made in house; host or cells: Sf9 cells (membrane preparation)
# ASSAY_NAME: MGAT LCMS Assay
# Assay type: biochemical
# DETAILS: human MGAT2 membranes expressed in Sf9 cells; 100 μM 2-oleoylglycerol, 15 μM oleoyl-coenzyme A; read-out: h-MGAT LCMS IC50
# Method: Assay plates were run through a fully automated robotics system and shaken for 5 seconds every minute for a total 10 minutes. The reactions were then quenched with 120 μL of ice cold methanol containing 1 μg/mL 1,2-distearoyl-rac-glycerol as the internal standard. Plates were shaken for 2 minutes and spun down to remove protein precipitation. After the spin, samples were transferred to LC/MS compatible PCR plates. […]
Exercise: for every item that follows, state its recorded pIC50.
Answer as the number alone; pIC50 is minus log10 of concentration in mol/L.

Exam item: Any idea what pIC50 was measured for CCOc1cc(OCCCCCC(F)(F)F)ccc1-c1cc(-c2ccc(C3CC3)cc2)c(-c2nnn[nH]2)c(=O)[nH]1 [Example 124] ?
Marked response: 6.89

Exam item: Thanks! And CC(C)(C)c1ccc(-c2cc(-c3ccc(OCCCC(F)(F)F)cc3)[nH]c(=O)c2C(=O)Nc2ccccc2)cc1 [Example 44] ?
Marked response: 8.22

Exam item: Thanks! And CCc1ccc(-c2cc(-c3ccc(OCCCCCC(F)(F)F)cc3)[nH]c(=O)c2-n2nn[nH]c2=O)s1 [Example 156] ?
Marked response: 6.84

Exam item: Thanks! And Cc1ccc(-c2cc(-c3ccc(OCCCC(F)(F)F)c(C)c3)[nH]c(=O)c2-c2nnn[nH]2)cc1 [Example 58] ?
Marked response: 6.24

Exam item: Thanks! And CCOc1ccc(NC(=O)c2c(-c3ccc(C)cc3)cc(C3CCCC3)[nH]c2=O)cc1 [Example 29] ?
Marked response: 6.84

Exam item: Thanks! And O=c1[nH]c(-c2ccc(OCCCC(F)(F)F)cc2F)cc(-c2ncc(C3CC3)s2)c1-c1nnn[nH]1 [Example 125] ?
Marked response: 8.70

Exam item: Thanks! And Cc1ccc(-c2cc(-c3ccc(OCCCCCC(F)(F)F)cc3F)[nH]c(=O)c2-n2nn[nH]c2=O)cc1 [Example 159] ?
Marked response: 7.42

Exam item: Thanks! And CCc1cnc(-c2cc(-c3ccc(/C=C/C4CC4)cc3)[nH]c(=O)c2-c2nn[nH]n2)s1 [Example 147] ?
Marked response: 8.15

Exam item: Thanks! And CCOc1ccc(NC(=O)c2c(-c3ccc(C)cc3)cc(C3(F)CCCC3)[nH]c2=O)cc1 [Example 54] ?
Marked response: 6.90

Exam item: Thanks! And O=c1[nH]c(-c2ccc(OCCCC(F)(F)F)cc2F)cc(-c2ccc(OC(F)F)cc2)c1-c1nn[nH]n1 [Example 113] ?
Marked response: 8.15
